experiment.summary: NCI Yeast Anticancer Drug Screen. Data for the rad50 strain (AID 155);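 note: 0% = growth of vehicle-only cultures of the same strain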
stated.conditions: S. cerevisiae rad50 strain growth inhibition; at 50.0 µM
The panel holds about 79,000 compounds, 15% with a hit somewhere; the sample as a whole holds those more often. Active and inactive are the calls of the source. Cut-off read from the data, not from the text of the source: active = growth inhibition above about 70%; inactive = the rest.
Returns: one label drawn from active, inactive

Past entries and their recorded results:
CCN1CCCC(Cl)C1 (stereo unspecified)	inactive
CNc1ncnc2c1cnn2-c1ccc(Cl)cc1	inactive
Cc1cc2ccccc2n1C	inactive
CCCCNC(N)=O	inactive

Hi team, can someone confirm the assay call for CCc1cc(-c2ccc(OC)cc2)c(C#N)c(=S)n1C1OC(CO)C(O)C(O)C1O (stereo unspecified) ?
inactive

How did this test come out for CC(=O)Oc1cccc2c1C(=O)C1CC(O)C3(C=O)OC(C)(C)OC2(C)C13 (stereo unspecified) ?
inactive

Per the records of this test, what outcome belongs to "O=C(Nc1ccc(Cl)cc1)Nc1nnc(-c2ccc(-c3nnc(NC(=O)Nc4ccc(Cl)cc4)o3)cc2)o1" ?
inactive

# lookup: test call for "O=C(N/N=C1\CCc2ccccc2C1)N/N=C1\CCc2ccccc2C1"
inactive

Name the outcome recorded for "CC(=O)Oc1cc(Oc2c(OC(C)=O)cc(Oc3c(OC(C)=O)cc(OC(C)=O)c(OC(C)=O)c3OC(C)=O)cc2OC(C)=O)cc(OC(C)=O)c1OC(C)=O" in the assay.
inactive

----------
experiment.summary: NCI Yeast Anticancer Drug Screen. Data for the mec2-1 strain (AID 157)
stated.conditions: S. cerevisiae mec2-1 strain, at 50.0 µM, hits give high values
Method: Growth inhibition of yeast strains with defined genetic alterations is measured as a screen for potential anti-cancer activity. Selected strains with alterations in DNA damage repair or cell cycle control were exposed to compounds and growth inhibition was measured relative to vehicle treated controls. The strain used in this assay is mec2-1
The panel holds about 79,000 compounds, 15% with a hit somewhere; the sample as a whole holds those more often.
measured.attribute: growth inhibition (%)
Give just the numeric value; % need not be written.

Look over these answered cases.
CCc1nc(Nc2cccc(C)c2)c2cnn(-c3ccccc3)c2n1	-15.6
CCOC(=O)C1(C)OC1c1ccc([N+](=O)[O-])cc1 (centres undefined)	5.45
Brc1cc2ccccc2nc1-c1ccccc1	-7.95
COC(=O)C(C#N)(CCc1ccc([N+](=O)[O-])cc1)CCc1ccc([N+](=O)[O-])cc1	-4.25
Nc1cccc(Nc2nc3ccccc3nc2NS(=O)(=O)c2ccccc2)c1	22.6
CNc1c([N+](=O)[O-])cc2[nH]c(C)nc2c1[N+](=O)[O-]	19.3

Entry "CCCCCC(N)=O" — recorded growth inhibition = -7.05

// recorded growth inhibition for "Cc1cc(CN(C)C)cc(C(C)C)c1O" : -0.9

The compound listed as "CC(=O)CC(=O)C(F)(F)F" has a reported growth inhibition of -3.35

----------
experiment.summary: NCI Yeast Anticancer Drug Screen. Data for the mlh1 rad18 strain (AID 175)
stated.conditions: S. cerevisiae mlh1 rad18 strain growth inhibition; at 50.0 µM
About 79,000 compounds went through this panel and 15% of them were active in at least one assay; those are over-represented in the sample as a whole. Calls of active or inactive are those of the source. Cut-off read from the data, not from the text of the source: active = growth inhibition above about 70%; inactive = the rest.
Field 'call' accepts yes for active, no for inactive

Look over these answered cases.
NC1CCCCC1N.O=NN1CCCCCC1(P(=O)([O-])[O-])P(=O)([O-])[O-].[Na+].[Pt+2]	no
O=[N+]([O-])c1ccc(N/N=C\C2C=CCCC2)c([N+](=O)[O-])c1 (stereo unspecified)	no
CC(=O)OCC1CC=CCC1C (stereo unspecified)	no
CCC(CC)C(O)CCCN(C)C (stereo unspecified)	no

Hi, do you know how "COC(=O)/C=C/c1ccc2c(c1)CCC2" came out in this test?
no

What call does the record list for "Cc1cc(N(CCC#N)CCC#N)ccc1/C=C(\NC(=O)/C=C/c1ccccc1)C(=O)Nc1ccc(Cl)cc1" ?
no

What was the test verdict on "CC(=O)Oc1c(C)cc(C(=O)CO)cc1C" ?
no

Identify the outcome logged in this assay for the molecule shown: "COc1ccc(C(CC(=O)O)CC(=O)O)cc1"
no

Dear all, I need the recorded test outcome for Cc1ccc(S(=O)(=O)OC2CCCC2OS(=O)(=O)c2ccc(C)cc2)cc1 (stereo unspecified) , thank you.
no

Assay result, entry "O=[N+]([O-])c1ccc(/C(=C/c2ccc(Cl)cc2Cl)S(=O)(=O)C(Cl)Cl)o1" — outcome?
yes

// return assay outcome for "NNC(=O)c1cccc(C(=O)NN)n1"
no

Call for entry "CC(=O)Oc1cc(Oc2c(OC(C)=O)cc(Oc3c(OC(C)=O)cc(OC(C)=O)c(OC(C)=O)c3OC(C)=O)cc2OC(C)=O)cc(OC(C)=O)c1OC(C)=O" :
no

----------
experiment.summary: NCI Yeast Anticancer Drug Screen. Data for the cln2 rad14 strain (AID 165);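 note: 0% = growth equal to vehicle treated cultures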
stated.conditions: S. cerevisiae cln2 rad14 strain, at 50.0 µM, hits give high values
The panel holds about 79,000 compounds, 15% with a hit somewhere; the sample as a whole holds those more often.
# maps each entry to its growth inhibition
// return numeric value only (unit: %, not printed)

CC(C)c1ccc2c(c1)CCC1C2(C)CCCC1(C)C(O)c1ccccc1 (stereo not given)	-17.1
COc1cccc(C2c3cc4c(cc3OC(C)(O)C2C)OCO4)c1OC (stereo not given)	13.9
O=C(Nc1cccc(Cl)c1)OCc1ccccn1	-21.5
CC(=O)NC1C(OC(C)C(=O)NC(C)C(=O)NC(CCC(=O)NCCCCCNc2ccc([N+](=O)[O-])c3[nH]c4ccccc4c(=O)c23)C(N)=O)C(O)C(CO)OC1(C)OCc1ccccc1 (stereo not given)	23.9
O=C(Cl)N(C1CCCCC1)C1CCCCC1	-10.9

Lab note: measured growth inhibition of "O=C(CCCCCCCCC(=O)NO)NO" was 4

response.value for "N[C@@H]1c2c(csc2Br)C(=O)[C@@H]1O" (field: growth inhibition) = -6.8

Query "O=C(O)CS(=O)(=O)Cc1ccc(Cl)cc1Cl" yields growth inhibition of 12.8

----------
Parameter: growth inhibition. Scope: all listed entries.
experiment.summary: NCI Yeast Anticancer Drug Screen. Data for the mlh1 rad18 strain (AID 175)
stated.conditions: S. cerevisiae mlh1 rad18 strain growth inhibition; at 50.0 µM; hits give high values
About 79,000 compounds went through this panel and 15% of them were active in at least one assay; those are over-represented in the sample as a whole.
Record the value in %, omitting the unit from your answer.

CNC(=O)N(C)COC	-5.1
O=C(NNc1nc(CCl)cs1)c1ccccc1Cl	-11.6
CCOC(=O)c1ccc(N2C(C#N)c3ccccc3OC2c2ccccc2O)cc1 (centres undefined)	21.4

Entry "c1ccc(C(SN=C2CCCCC2)(c2ccccc2)c2ccccc2)cc1" ; growth inhibition = -13.1

----------
experiment.summary: NCI Yeast Anticancer Drug Screen. Data for the sgs1 mgt1 strain (AID 161);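 note: 0% = growth of cultures given vehicle only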
stated.conditions: S. cerevisiae sgs1 mgt1 strain, at 50.0 µM, hits give high values
The panel holds about 79,000 compounds, 15% with a hit somewhere; the sample as a whole holds those more often.
measured.attribute: growth inhibition (%)
Answer with a number only, understood to be in %.

Solved entries (count: 6):
O=C1/C(=C/c2ccccc2)CN(C(=O)Oc2ccccc2)C/C1=C\c1ccccc1	-12.9
C=CCNC(=S)N(C)Cc1ccccc1Cl	34.8
Cn1c(=O)c2c(ncn2CCN2CCNCC2)n(C)c1=O	0.2
c1cc2c3c(c1)ccc1cccc(c13)C2	12.8
N#Cc1cc2c3ccccc3ncc2c2ccccc12	-3
c1ccc(C2c3ccccc3-c3ncnc(N4CCCCC4)c32)cc1 (stereo not drawn)	24.8

The recorded growth inhibition for entry "COc1ccc(C(=O)N/N=C/c2ccccc2OC)cc1" equals 25.4

For this compound ( "Cc1ccc(C(=N)c2ccccc2Cc2cccc3ccccc23)c2ccccc12" ), measured growth inhibition is -30.2

Notebook: "Cc1ccc(S(=O)(=O)n2oc(N)c(Cc3ccccc3)c2=O)cc1" , growth inhibition read as 7.8

Lab note: "O=C(N/N=C\c1ccc(Cl)cc1Cl)c1ccccc1S" gave growth inhibition of -4.55

growth inhibition reported for this compound "CCNC(=O)OCCN(CCOC(=O)NCC)CCc1ccccc1" : 15.5

----------
experiment.summary: NCI Yeast Anticancer Drug Screen. Data for the bub3 strain (AID 167)
stated.conditions: S. cerevisiae bub3 mutant strain, at 50.0 µM, hits give high values
Protocol: Growth inhibition of yeast strains with defined genetic alterations is measured as a screen for potential anti-cancer activity. Selected strains with alterations in DNA damage repair or cell cycle control were exposed to compounds and growth inhibition was measured relative to vehicle treated controls. The strain used in this assay is bub3
This is part of a sample that, as a whole, favours compounds with a hit. Of some 79,000 tested, about 15% had one in any assay.
measured.attribute: growth inhibition (%)
Give just the number in %; leave the unit off.

C=C1CC2(CCC3C4CC=C5CC(O)CCC5(C)C4CCC32C)OC1=O (centres undefined)	8.15
O=C(O)c1cc(Br)c(O)cc1O	-5.25
NC(=O)c1[nH]nc(C2OC(CO)C(O)C2O)c1O (centres undefined)	-22.9

Now let's try a different one.
Recorded growth inhibition (compound "O=C1c2ccccc2C(=O)N1CNc1cccc(NCN2C(=O)c3ccccc3C2=O)n1" ): -6.5

// provenance: PubChem BioAssay (NCI)
